- experimental.target: T1, mouse IL-22 (mouse, UniProt Q9JJY9 34-179)
- T1 construct: also called mIL-22; mIL22
- T1 sequence (looked up): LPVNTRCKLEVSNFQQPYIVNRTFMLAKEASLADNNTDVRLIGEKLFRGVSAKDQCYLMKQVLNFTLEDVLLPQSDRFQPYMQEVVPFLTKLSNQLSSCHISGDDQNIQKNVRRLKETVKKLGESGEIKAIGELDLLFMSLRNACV
- assay.procedure: SPR (SierraSensors SPR-2), mIL-22 immobilized on chip, antibody injected, heterogeneous ligand model
experimental.endpoint: koff (s⁻¹)
Unit s⁻¹ implied. Number only.

Asked: Reported koff, binder CPE-LC-E049K (antibody, V domains shown, One of the mutant antibodies of the CPE library made from hum10 (CDR positions substituted); built here as hum10 with E49K in the light chain, read from its name) VH: QVQLVQSGAEVKKPGASVKVSCKASGYIFTSYWIHWIRQPPGKGLEWIGRIYPGTGNTYYNEKFKGRVTISADKSISTAYLQWSSLKASDTAMYYCARSYDSSCAYWGQGTLVTVSS VL: AIQLTQSPSSLSASVGDRVTITCSASSSVSYMHWYLQKPGQSPQLLIYKTSKLASGVPSRFSGSGSGTDFTFTISSLEAEDAATYYCQQWSSNPYITFGQGTKVEIKR : ____
Given back: 0.00137
